Assay: Solubility by eye observation with stepwise addition of solution
Type: physicochemical
Conditions: citric acid buffer solutions, aqueous buffer, thermodynamic from solid, citric acid buffer solutions of Table 1
READOUT_NAME: solubility

{"columns": ["COMPOUND", "EXPERIMENTAL_VALUE"],
 "data": [
  ["CCS(=O)(=O)c1cccc(-c2cc(C(=O)NC3CCN(C)CC3)c(C)c3[nH]c4ncc(C)cc4c23)c1.Cl [compound A1 hydrochloride]", "< 8000 µg/mL"]
]}

---

Test: Saturation solubility, shaken 18 hours at 5° C., filtered, HPLC
Assay type: physicochemical
Conditions: pH 4, aqueous with cosolvent or surfactant or cyclodextrin, thermodynamic from solid, 5 w/v % Sulfobutyl ether-β-cyclodextrin sodium salt, 40 mM Citric acid, NaOH, as free form

{"columns": ["COMPOUND", "solubility at 18 h (mg/mL)"],
 "data": [
  ["CCS(=O)(=O)c1cccc(-c2cc(C(=O)NC3CCN(C)CC3)c(C)c3[nH]c4ncc(C)cc4c23)c1.Cl [compound A1 hydrochloride]", 20.9]
]}
